Items are presented alongside their recorded CC50.
# System: SK-OV3
# METHOD: Inhibition of cells growth by colorimetric assay (SRB), SK-OV3
# Format: cell-based
# ASSAY SETUP: read-out: LC50; SK-OV3, 48 hours exposure, SRB
OBSERVABLE: CC50 (µM)

{"columns": ["COMPOUND", "ASSAY VALUE"],
 "data": [
  ["COc1c(C)cc2c(c1O)[C@@H]1C3[C@@H]4SC[C@]5(NC(C)Cc6c5[nH]c5ccc(F)cc65)C(=O)COC[C@@H](c5c6c(c(C)c(OC(C)=O)c54)OCO6)N3[C@@H](O)[C@H](C2)N1C (stereo partly shown)", 12.7],
  ["COc1c(C)cc2c(c1O)[C@@H]1C3[C@@H]4SC[C@]5(C(=O)COC[C@@H](c6c7c(c(C)c(OC(C)=O)c64)OCO7)N3[C@@H](O)[C@H](C2)N1C)c1[nH]c2ccccc2c1CCN5C (stereo partly shown) [Compound 40]", 0.013],
  ["COc1c(C)cc2c(c1O)[C@@H]1C3[C@@H]4SC[C@]5(C(=O)COC[C@@H](c6c7c(c(C)c(OC(C)=O)c64)OCO7)N3[C@@H](O)[C@H](C2)N1C)c1[nH]c2ccccc2c1CCN5C (stereo partly shown) [Compound 39]", 13],
  ["COc1c(C)cc2c(c1O)[C@@H]1C3[C@@H]4SC[C@]5(NC(C)Cc6c5[nH]c5ccc(O)cc65)C(=O)COC[C@@H](c5c6c(c(C)c(OC(C)=O)c54)OCO6)N3[C@@H](O)[C@H](C2)N1C (stereo partly shown)", 12.7]
]}

====

# System: K562
# METHOD: cells
# Type: cell-based
# ASSAY SETUP: read-out: LC50; K562, 48 hours exposure, SRB

{"columns": ["COMPOUND", "UNIT", "CC50"],
 "data": [
  ["COc1c(C)cc2c(c1O)[C@@H]1C3[C@@H]4SC[C@]5(C(=O)COC[C@@H](c6c7c(c(C)c(OC(C)=O)c64)OCO7)N3[C@@H](O)[C@H](C2)N1C)c1[nH]c2ccccc2c1CCN5C (some centres unmarked) [Compound 40]", "nM", 80],
  ["COc1c(C)cc2c(c1O)[C@@H]1C3[C@@H]4SC[C@]5(NC(C)Cc6c5[nH]c5ccc(F)cc65)C(=O)COC[C@@H](c5c6c(c(C)c(OC(C)=O)c54)OCO6)N3[C@@H](O)[C@H](C2)N1C (some centres unmarked) [Compound 42]", "nM", 2810],
  ["COc1c(C)cc2c(c1O)[C@@H]1C3[C@@H]4SC[C@]5(NC(C)Cc6c5[nH]c5ccc(O)cc65)C(=O)COC[C@@H](c5c6c(c(C)c(OC(C)=O)c54)OCO6)N3[C@@H](O)[C@H](C2)N1C (some centres unmarked) [Compound 38]", "nM", 3.15],
  ["COc1c(C)cc2c(c1O)[C@@H]1C3[C@@H]4SC[C@]5(NC(C)Cc6c5[nH]c5ccc(O)cc65)C(=O)COC[C@@H](c5c6c(c(C)c(OC(C)=O)c54)OCO6)N3[C@@H](O)[C@H](C2)N1C (some centres unmarked) [Compound 37]", "nM", 12.7],
  ["COc1c(C)cc2c(c1O)[C@@H]1C3[C@@H]4SC[C@]5(NC(C)Cc6c5[nH]c5ccc(F)cc65)C(=O)COC[C@@H](c5c6c(c(C)c(OC(C)=O)c54)OCO6)N3[C@@H](O)[C@H](C2)N1C (some centres unmarked) [Compound 41]", "nM", 5.57]
]}

====

# Tested on: SK-OV3
# METHOD: Inhibition of cells growth by colorimetric assay (SRB), SK-OV3
# Format: cell-based
# ASSAY SETUP: Homo sapiens, SK-OV-3, 48 h, read-out: LC50, SK-OV3, 48 hours exposure, SRB
Listed below: CC50 values for each entry.

{"columns": ["COMPOUND", "SYSTEM NAME", "CC50, µM"],
 "data": [
  ["COc1c(C)cc2c(c1O)[C@@H]1C3[C@@H]4SC[C@]5(NC(C)Cc6c5[nH]c5ccc(O)cc65)C(=O)COC[C@@H](c5c6c(c(C)c(OC(C)=O)c54)OCO6)N3[C@@H](O)[C@H](C2)N1C (stereo partly shown)", "SK-OV3", 12.7],
  ["COc1c(C)cc2c(c1O)[C@@H]1C3[C@@H]4SC[C@]5(NCCc6c5[nH]c5ccc(F)cc65)C(=O)COC[C@@H](c5c6c(c(C)c(OC(C)=O)c54)OCO6)N3[C@@H](O)[C@H](C2)N1C (stereo partly shown)", "SK-OV3", 12.9],
  ["COc1c(C)cc2c(c1O)[C@@H]1C3[C@@H]4SC[C@]5(NCCc6c5[nH]c5c(C)cccc65)C(=O)COC[C@@H](c5c6c(c(C)c(OC(C)=O)c54)OCO6)N3[C@@H](O)[C@H](C2)N1C (stereo partly shown)", "SK-OV3", 13],
  ["COc1c(C)cc2c(c1O)[C@@H]1C3[C@@H]4SC[C@]5(NC(C)Cc6c5[nH]c5ccc(F)cc65)C(=O)COC[C@@H](c5c6c(c(C)c(OC(C)=O)c54)OCO6)N3[C@@H](O)[C@H](C2)N1C (stereo partly shown)", "SK-OV3", 12.7]
]}

====

# System: H9c2 (2-1), normal rat cardiac muscle cells
# ASSAY SETUP: 24 h
Listing of entries alongside the reported Heart.
OBSERVABLE: Heart

{"columns": ["MOLECULE", "ASSAY VALUE"],
 "data": [
  ["COc1c(C)cc2c(c1O)[C@@H]1C3[C@@H]4SC[C@]5(NC(C)Cc6c5[nH]c5ccc(O)cc65)C(=O)COC[C@@H](c5c6c(c(C)c(OC(C)=O)c54)OCO6)N3[C@@H](O)[C@H](C2)N1C (stereo partly shown) [Compound 38]", "2.96E−09"],
  ["COc1c(C)cc2c(c1OC(=O)OC(C)(C)C)[C@@H]1C3[C@@H]4SC[C@]5(NCCc6c5[nH]c5ccccc65)C(=O)COC[C@@H](c5c6c(c(C)c(OC(C)=O)c54)OCO6)N3[C@@H](O)[C@H](C2)N1C (stereo partly shown) [Compound 46]", "3.51E−08"],
  ["COc1c(C)cc2c(c1O)[C@@H]1C3[C@@H]4SC[C@]5(NCCc6c5[nH]c5c(C)cccc65)C(=O)COC[C@@H](c5c6c(c(C)c(OC(C)=O)c54)OCO6)N3[C@@H](O)[C@H](C2)N1C (stereo partly shown) [Compound 36]", "8.86E−07"],
  ["COc1ccc2c3c([nH]c2c1)[C@@]1(CS[C@@H]2c4c(OC(C)=O)c(C)c5c(c4[C@H](COCC1=O)N1C2[C@H]2c4c(cc(C)c(OC)c4O)C[C@@H]([C@@H]1O)N2C)OCO5)NCC3 (stereo partly shown) [Compound 34]", "4.96E−07"],
  ["COc1c(C)cc2c(c1O)[C@@H]1C3[C@@H]4SC[C@]5(NC(C)Cc6c5[nH]c5ccc(F)cc65)C(=O)COC[C@@H](c5c6c(c(C)c(OC(C)=O)c54)OCO6)N3[C@@H](O)[C@H](C2)N1C (stereo partly shown) [Compound 42]", "1.42E−07"],
  ["COc1c(C)cc2c(c1O)[C@@H]1C3[C@@H]4SC[C@]5(NC(C)Cc6c5[nH]c5ccccc65)C(=O)COC[C@@H](c5c6c(c(C)c(OC(C)=O)c54)OCO6)N3[C@@H](O)[C@H](C2)N1C (stereo partly shown) [Compound 43]", "9.42E−08"],
  ["C=COC(=O)Oc1c(OC)c(C)cc2c1[C@@H]1C3[C@@H]4SC[C@]5(NCCc6c5[nH]c5ccccc65)C(=O)COC[C@@H](c5c6c(c(C)c(OC(C)=O)c54)OCO6)N3[C@@H](O)[C@H](C2)N1C (stereo partly shown) [Compound 47]", "7.36E−08"],
  ["COc1c(C)cc2c(c1O)[C@@H]1C3[C@@H]4SC[C@]5(NCCc6c5[nH]c5c(OCc7ccccc7)cccc65)C(=O)COC[C@@H](c5c6c(c(C)c(OC(C)=O)c54)OCO6)N3[C@@H](O)[C@H](C2)N1C (stereo partly shown) [Compound 28]", "1.84E−07"],
  ["COc1c(C)cc2c(c1O)[C@@H]1C3[C@@H]4SC[C@]5(NCCc6c5[nH]c5ccc(OCc7ccccc7)cc65)C(=O)COC[C@@H](c5c6c(c(C)c(OC(C)=O)c54)OCO6)N3[C@@H](O)[C@H](C2)N1C (stereo partly shown) [Compound 29]", "7.22E−08"],
  ["COc1c(C)cc2c(c1O)[C@@H]1C3[C@@H]4SC[C@]5(NCCc6c5[nH]c5ccc(C)cc65)C(=O)COC[C@@H](c5c6c(c(C)c(OC(C)=O)c54)OCO6)N3[C@@H](O)[C@H](C2)N1C (stereo partly shown) [Compound 30]", "5.06E−07"],
  ["COc1c(C)cc2c(c1O)[C@@H]1C3[C@@H]4SC[C@]5(C(=O)COC[C@@H](c6c7c(c(C)c(OC(C)=O)c64)OCO7)N3[C@@H](O)[C@H](C2)N1C)c1[nH]c2ccc(O)cc2c1CCN5C (stereo partly shown) [Compound 33]", "1.27E−06"],
  ["COc1c(C)cc2c(c1O)[C@@H]1C3[C@@H]4SC[C@]5(NC(C)Cc6c5[nH]c5ccccc65)C(=O)COC[C@@H](c5c6c(c(C)c(OC(C)=O)c54)OCO6)N3[C@@H](O)[C@H](C2)N1C (stereo partly shown) [Compound 44]", "5.20E−06"],
  ["COc1c(C)cc2c(c1O)[C@@H]1C3[C@@H]4SC[C@]5(NCCc6c5[nH]c5ccccc65)C(=O)COC[C@@H](c5c6c(c(C)c(OC(C)=O)c54)OCO6)N3[C@@H](O)[C@H](C2)N1C (stereo partly shown) [Compound 26]", "6.43E−07"],
  ["COc1c(C)cc2c(c1O)[C@@H]1C3[C@@H]4SC[C@]5(NC(C)Cc6c5[nH]c5ccc(O)cc65)C(=O)COC[C@@H](c5c6c(c(C)c(OC(C)=O)c54)OCO6)N3[C@@H](O)[C@H](C2)N1C (stereo partly shown) [Compound 37]", "1.74E−08"],
  ["COc1c(C)cc2c(c1O)[C@@H]1C3[C@@H]4SC[C@]5(NCCc6c5[nH]c5ccc(O)cc65)C(=O)COC[C@@H](c5c6c(c(C)c(OC(C)=O)c54)OCO6)N3[C@@H](O)[C@H](C2)N1C (stereo partly shown) [Compound 31]", "6.65E−08"],
  ["COc1c(C)cc2c(c1O)[C@@H]1C3[C@@H]4SC[C@]5(NCCc6c5[nH]c5cc(F)ccc65)C(=O)COC[C@@H](c5c6c(c(C)c(OC(C)=O)c54)OCO6)N3[C@@H](O)[C@H](C2)N1C (stereo partly shown) [Compound 32]", "2.42E−07"],
  ["COc1ccc2[nH]c3c(c2c1)CCN[C@]31CS[C@@H]2c3c(OC(C)=O)c(C)c4c(c3[C@H](COCC1=O)N1C2[C@H]2c3c(cc(C)c(OC)c3O)C[C@@H]([C@@H]1O)N2C)OCO4 (stereo partly shown) [Compound 27]", "9.93E−08"],
  ["COc1c(C)cc2c(c1O)[C@@H]1C3[C@@H]4SC[C@]5(NC(C)Cc6c5[nH]c5ccc(F)cc65)C(=O)COC[C@@H](c5c6c(c(C)c(OC(C)=O)c54)OCO6)N3[C@@H](O)[C@H](C2)N1C (stereo partly shown) [Compound 41]", "3.49E−08"],
  ["COc1c(C)cc2c(c1O)[C@@H]1C3[C@@H]4SC[C@]5(NCCc6c5[nH]c5ccc(F)cc65)C(=O)COC[C@@H](c5c6c(c(C)c(OC(C)=O)c54)OCO6)N3[C@@H](O)[C@H](C2)N1C (stereo partly shown) [Compound 35]", "1.93E−08"]
]}
